# Tested on: SR leukemia
# ASSAY COMMENT: NCI tumour cell line growth inhibition, 384-well format; in the data active means GI50 below about 0.43 µM; inactive means the rest
Outcome field: choose from active, inactive

Request: Any idea what this test logged for "CC#C/C(=N\OC[C@H]1COCCN1)c1ccc2ncnc(Nc3ccc(OCc4cccc(F)c4)c(Cl)c3)c2c1" ?
Response: active

Request: Proceed to "CN1CCN(c2cc(C(=O)Nc3cc4cc(-c5cnn(C)c5)ccc4cn3)ccn2)CC1"
Response: active

Request: Try this compound too: "COc1cc(Nc2ncc(F)c(Nc3ccc4c(n3)NC(=O)C(C)(C)O4)n2)cc(OC)c1OC"
Response: inactive

Request: Next compound: "C[C@@H](CN1CC(=O)NC(=O)C1)N1CC(=O)NC(=O)C1"
Response: inactive

Request: Subsequent entry: Nc1ncnc2c1c(-c1cccc(OCc3ccccc3)c1)cn2C1CC(CN2CCC2)C1 (stereo not given)
Response: inactive

----------
Give measured TGI for each item. Keep answers brief.
# System: T-47D breast
# ASSAY COMMENT: NCI tumour cell line growth inhibition, 384-well format
Express the result in nM but write the number alone.

Request: Would you kindly share the measured TGI for "CN1C(=O)[C@@H](NC(=O)[C@H](CCC(F)(F)F)[C@H](CCC(F)(F)F)C(N)=O)N=C(c2ccccc2)c2ccccc21" ?
Response: 65000

Request: Lookup "CC#C/C(=N\OC[C@H]1COCCN1)c1ccc2ncnc(Nc3ccc(OCc4cccc(F)c4)c(Cl)c3)c2c1"
Response: 2410

Request: "CN1CCN(c2cc(C(=O)Nc3cc4cc(-c5cnn(C)c5)ccc4cn3)ccn2)CC1"
Response: 340

----------
# System: NCI-H23 lung
# ASSAY COMMENT: NCI tumour cell line growth inhibition, 384-well format; in the data active = GI50 below about 0.43 µM; inactive = the rest
Hi there, use one of these labels in your reply, thanks! YES = active, NO = inactive

Request: What was the test verdict on "C[C@@H]1Cc2c([nH]c3ccccc23)[C@@H](c2c(F)cc(NC3CN(CCCF)C3)cc2F)N1CC(F)(F)CO" ?
Response: NO

Request: Now the compound "CN1CCN(c2cc(C(=O)Nc3cc4cc(-c5cnn(C)c5)ccc4cn3)ccn2)CC1"
Response: YES

Request: Also "CN1C(=O)[C@@H](NC(=O)[C@H](CCC(F)(F)F)[C@H](CCC(F)(F)F)C(N)=O)N=C(c2ccccc2)c2ccccc21" , if possible.
Response: NO

Request: Now this one: "CC#C/C(=N\OC[C@H]1COCCN1)c1ccc2ncnc(Nc3ccc(OCc4cccc(F)c4)c(Cl)c3)c2c1"
Response: NO
